- measurement-notes: Antitumor activity against renal cell lines of the NCI60 panel
- Assay type: functional, Homo sapiens
- measurement-conditions: Homo sapiens, renal
reported-property: GI50 (µM)
Respond numerically; units are µM and should not be typed.

Example cases with answers are listed next.
[[record]]
molecule_smiles = "Cc1csc2nc(-c3cc([N+](=O)[O-])c(Cl)cc3Cl)c(/C=N/N=C(N)N)n12"
unit_text = "µM"
value_reported = 17

[[record]]
molecule_smiles = "CC(/C=N/NC(=N)N)=N\\NC(=N)N"
unit_text = "µM"
value_reported = 20

[[record]]
molecule_smiles = "N=C(N)N/N=C/c1c(-c2ccccn2)nc2sc(Cl)cn12"
unit_text = "µM"
value_reported = 7.94

[[record]]
molecule_smiles = "CCCc1cn2c(/C=N/NC(=N)N)c(-c3cc([N+](=O)[O-])c(Cl)cc3Cl)nc2s1"
unit_text = "µM"
value_reported = 1.66


# next molecule below
Quick check: GI50 of `Cc1sc2nc(-c3ccccn3)c(/C=N/NC(=N)N)n2c1C` ?
6.61

###

- measurement-notes: Antitumor activity against CNS cell lines of the NCI60 panel
- Format: functional
- measurement-conditions: Homo sapiens
Listed here are compounds together with their documented GI50.
Respond numerically; units are µM and should not be typed.

[[record]]
molecule_smiles = "N=C(N)N/N=C/c1c(-c2ccncc2)nc2sc(Cl)cn12"
unit_text = "µM"
value_reported = 7.76

[[record]]
molecule_smiles = "Cc1csc2nc(-c3cc([N+](=O)[O-])c(Cl)cc3Cl)c(/C=N/N=C(N)N)n12"
unit_text = "µM"
value_reported = 17.8

[[record]]
molecule_smiles = "Cc1cn2c(/C=N/NC(=N)N)c(-c3ccccn3)nc2s1"
unit_text = "µM"
value_reported = 8.13

[[record]]
molecule_smiles = "N=C(N)N/N=C/c1c(-c2cc([N+](=O)[O-])c(Cl)cc2Cl)nc2sccn12"
unit_text = "µM"
value_reported = 1.55

[[record]]
molecule_smiles = "N=C(N)N/N=C/c1c(-c2ccccn2)nc2sc(Cl)cn12"
unit_text = "µM"
value_reported = 5.62

[[record]]
molecule_smiles = "CC(/C=N/NC(=N)N)=N\\NC(=N)N"
unit_text = "µM"
value_reported = 20


Quick check: GI50 of `N=C(N)N/N=C/c1c(-c2cccnc2)nc2sc(Cl)cn12` ?
15.1

Quick check: GI50 of `Cc1sc2nc(-c3ccccn3)c(/C=N/NC(=N)N)n2c1C` ?
20.9

###

- measurement-notes: Antitumor activity against melanoma cell lines of the NCI60 panel
- Type: functional
- measurement-conditions: Homo sapiens; read-out: pTGI (converted)
TGI of 30 µM or higher: 1.0. Under 30 µM: 0.0.

# bool: TGI of `Cc1sc2nc(-c3ccccn3)c(/C=N/NC(=N)N)n2c1C` >= 30 µM
1.0

# bool: TGI of `Cc1cn2c(/C=N/NC(=N)N)c(-c3ccccn3)nc2s1` >= 30 µM
0.0

# bool: TGI of `Cc1sc2nc(-c3cc([N+](=O)[O-])c(Cl)cc3Cl)c(/C=N/NC(=N)N)n2c1C` >= 30 µM
0.0

# bool: TGI of `N=C(N)N/N=C/c1c(-c2ccc(Cl)c([N+](=O)[O-])c2)nc2n1CCS2` >= 30 µM
0.0

# bool: TGI of CC(/C=N/NC(=N)N)=N\NC(=N)N [MITOGUAZONE] >= 30 µM
1.0

###

- measurement-notes: Antitumor activity against renal cell lines of the NCI60 panel
- Type: functional, Homo sapiens
- measurement-conditions: Homo sapiens, renal
reported-property: GI50 (µM)
Respond numerically; units are µM and should not be typed.

Example cases with answers are listed next.
[[record]]
molecule_smiles = "N=C(N)N/N=C/c1c(-c2cccnc2)nc2sc(Cl)cn12"
unit_text = "µM"
value_reported = 18.2

[[record]]
molecule_smiles = "N=C(N)N/N=C/c1c(-c2ccncc2)nc2sc(Cl)cn12"
unit_text = "µM"
value_reported = 6.61

[[record]]
molecule_smiles = "N=C(N)N/N=C/c1c(-c2cc([N+](=O)[O-])c(Cl)cc2Cl)nc2sc(Cl)cn12"
unit_text = "µM"
value_reported = 29.5

[[record]]
molecule_smiles = "Cc1cn2c(/C=N/NC(=N)N)c(-c3cccnc3)nc2s1"
unit_text = "µM"
value_reported = 9.55


Quick check: GI50 of `Cc1cn2c(/C=N/NC(=N)N)c(-c3cc([N+](=O)[O-])c(Cl)cc3Cl)nc2s1` ?
2.09

###

- measurement-notes: Antitumor activity against colon cell lines of the NCI60 panel
- Assay type: functional
- measurement-conditions: Homo sapiens
reported-property: GI50
Note: state the figure and append the unit.

Example cases with answers are listed next.
[[record]]
molecule = "CC(/C=N/NC(=N)N)=N\\NC(=N)N [MITOGUAZONE]"
reported_property = "GI50"
value_reported = "12.6 µM"

[[record]]
molecule = "Cc1cn2c(/C=N/NC(=N)N)c(-c3cccnc3)nc2s1"
reported_property = "GI50"
value_reported = "5.62 µM"

[[record]]
molecule = "N=C(N)N/N=C/c1c(-c2cc([N+](=O)[O-])c(Cl)cc2Cl)nc2sccn12"
reported_property = "GI50"
value_reported = "1.02 µM"


Quick check: GI50 of `N=C(N)N/N=C/c1c(-c2cc([N+](=O)[O-])c(Cl)cc2Cl)nc2n1CCS2` ?
0.447 µM

Quick check: GI50 of `N=C(N)N/N=C/c1c(-c2cccnc2)nc2sc(Cl)cn12` ?
8.51 µM

Quick check: GI50 of `N=C(N)N/N=C/c1c(-c2cc([N+](=O)[O-])c(Cl)cc2Cl)nc2sc(Cl)cn12` ?
5.75 µM

Quick check: GI50 of `Cc1csc2nc(-c3cc([N+](=O)[O-])c(Cl)cc3Cl)c(/C=N/N=C(N)N)n12` ?
15.1 µM

Quick check: GI50 of `Cc1sc2nc(-c3ccncc3)c(/C=N/NC(=N)N)n2c1C` ?
35.5 µM

Quick check: GI50 of `CCCc1cn2c(/C=N/NC(=N)N)c(-c3cc([N+](=O)[O-])c(Cl)cc3Cl)nc2s1` ?
1.48 µM

Quick check: GI50 of `CCc1cn2c(/C=N/NC(=N)N)c(-c3cc([N+](=O)[O-])c(Cl)cc3Cl)nc2s1` ?
1.38 µM

Quick check: GI50 of `N=C(N)N/N=C/c1c(-c2ccc(Cl)c([N+](=O)[O-])c2)nc2n1CCS2` ?
6.61 µM

Quick check: GI50 of `N=C(N)N/N=C/c1c(-c2ccncc2)nc2sc(Cl)cn12` ?
8.13 µM

Quick check: GI50 of `Cc1cn2c(/C=N/NC(=N)N)c(-c3ccncc3)nc2s1` ?
15.8 µM

Quick check: GI50 of `N=C(N)N/N=C/c1c(-c2ccccn2)nc2sc(Cl)cn12` ?
7.08 µM

Quick check: GI50 of `Cc1sc2nc(-c3cc([N+](=O)[O-])c(Cl)cc3Cl)c(/C=N/NC(=N)N)n2c1C` ?
4.27 µM

Quick check: GI50 of `Cc1cn2c(/C=N/NC(=N)N)c(-c3cc([N+](=O)[O-])c(Cl)cc3Cl)nc2s1` ?
0.661 µM

Quick check: GI50 of `Cc1sc2nc(-c3ccccn3)c(/C=N/NC(=N)N)n2c1C` ?
18.2 µM

Quick check: GI50 of `Cc1cn2c(/C=N/NC(=N)N)c(-c3ccccn3)nc2s1` ?
8.13 µM

###

- measurement-notes: Antitumor activity against melanoma cell lines of the NCI60 panel
- Format: functional
- measurement-conditions: Homo sapiens; read-out: pTGI (converted)
Lab note: compare TGI with 3 µM, writing Yes if less and No if equal or more.

[[record]]
molecule_smiles = "Cc1cn2c(/C=N/NC(=N)N)c(-c3cccnc3)nc2s1"
label_class = "No"

[[record]]
molecule_smiles = "N=C(N)N/N=C/c1c(-c2ccccn2)nc2sc(Cl)cn12"
label_class = "No"


Please indicate whether the reported TGI of `Cc1cn2c(/C=N/NC(=N)N)c(-c3ccncc3)nc2s1` is strictly below 3 µM.
No

Please indicate whether the reported TGI of `N=C(N)N/N=C/c1c(-c2cc([N+](=O)[O-])c(Cl)cc2Cl)nc2n1CCS2` is strictly below 3 µM.
Yes

Please indicate whether the reported TGI of `N=C(N)N/N=C/c1c(-c2ccncc2)nc2sc(Cl)cn12` is strictly below 3 µM.
No

###

- measurement-notes: Antitumor activity against prostate cell lines of the NCI60 panel
- Assay type: functional
- measurement-conditions: Homo sapiens, read-out: pTGI (converted)
Listed here are compounds together with their documented TGI.
Respond numerically; units are µM and should not be typed.

[[record]]
molecule_smiles = "CCCc1cn2c(/C=N/NC(=N)N)c(-c3cc([N+](=O)[O-])c(Cl)cc3Cl)nc2s1"
reported_property = "TGI"
unit_text = "µM"
value_reported = 3.39


Quick check: TGI of `Cc1cn2c(/C=N/NC(=N)N)c(-c3cc([N+](=O)[O-])c(Cl)cc3Cl)nc2s1` ?
2.34

Quick check: TGI of `Cc1cn2c(/C=N/NC(=N)N)c(-c3ccncc3)nc2s1` ?
32.4

Quick check: TGI of `N=C(N)N/N=C/c1c(-c2cc([N+](=O)[O-])c(Cl)cc2Cl)nc2n1CCS2` ?
3.09

Quick check: TGI of `Cc1cn2c(/C=N/NC(=N)N)c(-c3cccnc3)nc2s1` ?
24.5

Quick check: TGI of `N=C(N)N/N=C/c1c(-c2ccncc2)nc2sc(Cl)cn12` ?
33.1

Quick check: TGI of `Cc1sc2nc(-c3cc([N+](=O)[O-])c(Cl)cc3Cl)c(/C=N/NC(=N)N)n2c1C` ?
38

Quick check: TGI of `CCc1cn2c(/C=N/NC(=N)N)c(-c3cc([N+](=O)[O-])c(Cl)cc3Cl)nc2s1` ?
3.09

Quick check: TGI of `N=C(N)N/N=C/c1c(-c2ccc(Cl)c([N+](=O)[O-])c2)nc2n1CCS2` ?
20.9

Quick check: TGI of `N=C(N)N/N=C/c1c(-c2ccccn2)nc2sc(Cl)cn12` ?
17.8
